- assay.system: MOR (Rattus norvegicus, UniProt P33535)
- Sequence (P33535 whole entry): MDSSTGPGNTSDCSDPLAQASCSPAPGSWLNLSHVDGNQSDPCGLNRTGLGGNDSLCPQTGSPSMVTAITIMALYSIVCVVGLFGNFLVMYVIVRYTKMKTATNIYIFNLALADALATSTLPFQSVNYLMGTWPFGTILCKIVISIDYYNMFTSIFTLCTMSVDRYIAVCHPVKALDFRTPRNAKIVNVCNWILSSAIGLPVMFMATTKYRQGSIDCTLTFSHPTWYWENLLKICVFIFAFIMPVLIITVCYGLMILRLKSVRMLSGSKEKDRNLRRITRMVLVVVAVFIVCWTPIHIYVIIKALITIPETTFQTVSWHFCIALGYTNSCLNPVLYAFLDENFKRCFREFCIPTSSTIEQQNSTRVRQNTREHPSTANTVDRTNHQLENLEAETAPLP
- measurement.protocol: MOR receptor binding, displacement of [3H]DAMGO from rat brain membranes
- run.parameters: ratio of MOR/DOR/KOR Ki
Non-standard residues stand in square brackets, D forms with d. Residues, ends and D or L forms follow the SMILES beside them. Dmt = Cc1cc(O)cc(C)c1C[C@H](N)C(=O)O; dCit = NC(=O)NCCC[C@@H](N)C(=O)O; Nle = CCCC[C@H](N)C(=O)O
reported.property: Ki ratio μ/δ/κ

A selection of reference data follows.
compound	endpoint.value
Cc1cc(O)cc(C)c1C[C@H](N)C(=O)N[C@H](CCCNC(=N)N)C(=O)N[C@@H](Cc1ccccc1)C(=O)N(C)[C@@H](CCCCN)C(N)=O [Peptide 12, H-Dmt-D-Arg-Phe-NMeLys-NH2]	1/1190/216
CCCC[C@@H](C(N)=O)N(C)C(=O)[C@H](Cc1ccccc1)NC(=O)[C@@H](CCCNC(=N)N)NC(=O)[C@@H](N)Cc1c(C)cc(O)cc1C [Peptide 13, H-Dmt-D-Arg-Phe-NMeNle-NH2]	1/62/55
CCCC[C@H](NC(=O)[C@H](Cc1ccccc1)NC(=O)[C@@H](CCCNC(N)=O)NC(=O)[C@@H](N)Cc1c(C)cc(O)cc1C)C(N)=O [Peptide 11, H-Dmt-D-Cit-Phe-Nle-NH2] (H-[Dmt][dCit]F[Nle]-NH2)	1/5/125
CCCC[C@@H](C(N)=O)N1Cc2ccccc2C[C@H](NC(=O)[C@@H](CCCNC(=N)N)NC(=O)[C@@H](N)Cc2c(C)cc(O)cc2C)C1=O [Peptide 17, H-Dmt-D-Arg-Aba-Nle-NH2]	1/17/3

Lookup: Return reported Ki ratio μ/δ/κ; argument: Cc1cc(O)cc(C)c1C[C@H](N)C(=O)N[C@H](CCCNC(N)=O)C(=O)N[C@@H](Cc1ccccc1)C(=O)N(C)[C@@H](CCCCN)C(N)=O [Peptide 14, H-Dmt-D-Cit-Phe-NMeLys-NH2]
Found: 1/42/12

---

- assay.system: MOR (Rattus norvegicus)
- measurement.protocol: MOR receptor binding, displacement of [3H]DAMGO from rat brain membranes
- run.parameters: ratio of MOR/DOR/KOR Ki
Non-standard residues stand in square brackets, D forms with d. Residues, ends and D or L forms follow the SMILES beside them. Dmt = Cc1cc(O)cc(C)c1C[C@H](N)C(=O)O; Nle = CCCC[C@H](N)C(=O)O
reported.property: Ki ratio μ/δ/κ

Take a look at these entries with their results.
compound	assay.system	Ki ratio μ/δ/κ
Cc1cc(O)cc(C)c1C[C@H](N)C(=O)N[C@H](CCCNC(N)=O)C(=O)N[C@@H](Cc1ccccc1)C(=O)N[C@@H](CCCCN)C(N)=O [Peptide 10, H-Dmt-D-Cit-Phe-Lys-NH2]	MOR (Rattus norvegicus)	1/88/37
CCCC[C@H](NC(=O)[C@H](Cc1ccccc1)NC(=O)[C@@H](CCCNC(=N)N)NC(=O)[C@@H](N)Cc1c(C)cc(O)cc1C)C(N)=O [Peptide 9, H-Dmt-D-Arg-Phe-Nle-NH2] (H-[Dmt][dR]F[Nle]-NH2)	MOR (Rattus norvegicus)	1/66/70

# next compound below
Lookup: # lookup: Ki ratio μ/δ/κ of CCCC[C@@H](C(N)=O)N1Cc2ccccc2C[C@H](NC(=O)[C@@H](CCCNC(N)=O)NC(=O)[C@@H](N)Cc2c(C)cc(O)cc2C)C1=O [Peptide 19, H-Dmt-D-Cit-Aba-Nle-NH2]
Found: 1/3/12

---

- Tested on: mouse brain (blood-brain barrier)
- measurement.protocol: Blood-to-brain influx, multiple time regression of [125I]-peptides
- run.parameters: [125I]-labelled, CD-1 mice; mean ± SEM
Non-standard residues stand in square brackets, D forms with d. Residues, ends and D or L forms follow the SMILES beside them. Dmt = Cc1cc(O)cc(C)c1C[C@H](N)C(=O)O; Nle = CCCC[C@H](N)C(=O)O
Response key: Condition met means Vbr (brain distribution volume) >= 20 µL/g; Condition not met means Vbr (brain distribution volume) < 20 µL/g.

molecule	class.name
CCCC[C@H](NC(=O)[C@H](Cc1ccccc1)NC(=O)[C@@H](CCCN=C(N)N)NC(=O)[C@@H](N)Cc1c(C)cc(O)cc1C)C(N)=O [Peptide 9, H-Dmt-D-Arg-Phe-Nle-NH2] (H-[Dmt][dR]F[Nle]-NH2)	Condition met
Cc1cc(O)cc(C)c1C[C@H](N)C(=O)N[C@H](CCCNC(=N)N)C(=O)N[C@@H](Cc1ccccc1)C(=O)N[C@@H](CCCCN)C(N)=O [Peptide 1, H-Dmt-D-Arg-Phe-Lys-NH2, reference compound]	Condition not met
Cc1cc(O)cc(C)c1C[C@H](N)C(=O)N[C@H](CCCNC(=N)N)C(=O)N[C@@H](Cc1ccccc1)C(=O)N(C)[C@@H](CCCCN)C(N)=O [Peptide 12, H-Dmt-D-Arg-Phe-NMeLys-NH2]	Condition met
Cc1cc(O)cc(C)c1C[C@H](N)C(=O)N[C@H](CCCNC(=N)N)C(=O)N[C@H]1Cc2ccccc2CN(CC(N)=O)C1=O [Peptide 20, H-Dmt-D-Arg-Aba-Gly-NH2, reference compound]	Condition met

Lookup: Assess whether reported Vbr (brain distribution volume) for Cc1cc(O)cc(C)c1C[C@H](N)C(=O)N[C@H](CCCNC(N)=O)C(=O)N[C@@H](Cc1ccccc1)C(=O)N[C@@H](CCCCN)C(N)=O [Peptide 10, H-Dmt-D-Cit-Phe-Lys-NH2] sits at 20 µL/g or higher.
Found: Condition met

Lookup: Next molecule: Cc1cc(O)cc(C)c1C[C@H](N)C(=O)N[C@H](CCCNC(N)=O)C(=O)N[C@@H](Cc1ccccc1)C(=O)N(C)[C@@H](CCCCN)C(N)=O [Peptide 14, H-Dmt-D-Cit-Phe-NMeLys-NH2]
Found: Condition not met
